test: Intra-pulmonary (ELF, AC/AM by BAL) and plasma PK after multiple iv doses in healthy adult subjects; assay type: in vivo, human; conditions: human, intravenous, 100 mg, 8-hour sampling time; read-out: AM to Plasma (Mean, SD)
measured.attribute: Kp at 8 h
Number, no unit, nothing else.

*Q* Please look up its Kp at 8 h: `CN(C)c1cc(CNCC(C)(C)C)c(O)c2c1C[C@H]1C[C@H]3[C@H](N(C)C)C(O)=C(C(N)=O)C(=O)[C@@]3(O)C(O)=C1C2=O`
*A* 23.1

* * *

Experiment: Intra-pulmonary (ELF, AC/AM by BAL) and plasma PK after multiple iv doses in healthy adult subjects
Format: in vivo, human
Conditions: human, intravenous, 100 mg, 0.5-hour sampling time; read-out: AM to Plasma (Mean, SD)
Experimental: Concomitant blood samples were taken to compare tissue with serum antibiotic concentrations. […] One standard bronchoscopy was performed for each subject. […] A blood sample was taken at the time of bronschoscopy for plasma urea measurement. […] All the biofluid concentrations were expressed in ng/mL. All concentrations below the limit of quantification (BLQ) or missing data were labeled as such in the concentration data listings. […]
measured.attribute: Kp at 0.5 h
Number, no unit, nothing else.

*Q* Please look up its Kp at 0.5 h: `CN(C)c1cc(CNCC(C)(C)C)c(O)c2c1C[C@H]1C[C@H]3[C@H](N(C)C)C(O)=C(C(N)=O)C(=O)[C@@]3(O)C(O)=C1C2=O`
*A* 8.12

* * *

test: Intra-pulmonary (ELF, AC/AM by BAL) and plasma PK after multiple iv doses in healthy adult subjects; assay type: in vivo, human; settings: human, alveolar macrophages (AM); 1 h after fifth 100 mg iv dose; read-out: AM concentration (mean ± SD)
measured.attribute: concentration at 1 h (ng/mL)
Express it in ng/mL; write the number only.

*Q* Please look up its concentration at 1 h: CN(C)c1cc(CNCC(C)(C)C)c(O)c2c1C[C@H]1C[C@H]3[C@H](N(C)C)C(O)=C(C(N)=O)C(=O)[C@@]3(O)C(O)=C1C2=O [Compound 1]
*A* 12800

* * *

experiment: Intra-pulmonary (ELF, AC/AM by BAL) and plasma PK after multiple iv doses in healthy adult subjects; assay type: in vivo, human; settings: human, plasma; 12 h after fifth 100 mg iv dose; read-out: Plasma concentration at time of BAL (mean ± SD)
measured.attribute: concentration at 12 h (ng/mL)
Express it in ng/mL; write the number only.

*Q* Please look up its concentration at 12 h: CN(C)c1cc(CNCC(C)(C)C)c(O)c2c1C[C@H]1C[C@H]3[C@H](N(C)C)C(O)=C(C(N)=O)C(=O)[C@@]3(O)C(O)=C1C2=O [Compound 1]
*A* 420

* * *

experiment: Intra-pulmonary (ELF, AC/AM by BAL) and plasma PK after multiple iv doses in healthy adult subjects; type: in vivo, human; settings: human, intravenous, 100 mg, 2-hour sampling time; read-out: AM to Plasma (Mean, SD)
measured.attribute: Kp at 2 h
Number, no unit, nothing else.

*Q* Please look up its Kp at 2 h: `CN(C)c1cc(CNCC(C)(C)C)c(O)c2c1C[C@H]1C[C@H]3[C@H](N(C)C)C(O)=C(C(N)=O)C(=O)[C@@]3(O)C(O)=C1C2=O`
*A* 12.3

* * *

test: Intra-pulmonary (ELF, AC/AM by BAL) and plasma PK after multiple iv doses in healthy adult subjects; type: in vivo, human; details: human, plasma; 0.5 h after fifth 100 mg iv dose; read-out: Plasma concentration at time of BAL (mean ± SD)
measured.attribute: concentration at 0.5 h (ng/mL)
Express it in ng/mL; write the number only.

*Q* Please look up its concentration at 0.5 h: `CN(C)c1cc(CNCC(C)(C)C)c(O)c2c1C[C@H]1C[C@H]3[C@H](N(C)C)C(O)=C(C(N)=O)C(=O)[C@@]3(O)C(O)=C1C2=O`
*A* 1800
